test system: CyCXCL1; experiment: CyCXCL1 binding activity ELISA; design: species or system cynomolgus monkey; conditions: absorbance to CyCXCL1 relative to absorbance to HuCXCL1
Sequence (as listed by the source): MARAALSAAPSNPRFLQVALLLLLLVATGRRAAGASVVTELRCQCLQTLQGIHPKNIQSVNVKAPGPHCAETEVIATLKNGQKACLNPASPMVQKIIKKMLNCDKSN
Measured Attribute: Binding activity to CyCXCL1 ELISA

Exercise: State, in one line, measured Binding activity to CyCXCL1 ELISA of 1A-7H10: mouse monoclonal anti-HuCXCL1 antibody clone; VH SEQ ID NO: 1, VL SEQ ID NO: 5 (antibody, listed as Mus musculus, V domains shown) VH: QVQLKESGPVLVAPSQSLSITCSVSGFSSTTYGVHWVRQPPGQGLEWLGVIWAGGSTNYNSALMSRLSISKDNSKSQVFLKMNSLQTDDTAMYYCATQYHYPFAYWGQGTLVTVSA VL: NIVMTQSPKSMSMSVGERVTLSCKASENVGIYVSWYQQKPEQSPKLMIYGASNRNTGVPDRFTGSGSATDFTLTISSVQAEDLADYYCGQSYSYPLTFGAGTKLELK
Solution: ∘
